tested on: Mycobacterium tuberculosis; test: Antitubercular activity against Mycobacterium tuberculosis H37Rv after 1 week by microplate alamar blue assay; format: functional; conditions: 168 h
measured.property: MIC (µg/mL)
Form entry: value (µg/mL) — number only.

O=C(NCCc1ccccc1)c1c(-c2ccccc2)c2cc(Cl)ccc2[nH]c1=O
25
COC(=O)C(Cc1c[nH]c2ccccc12)NC(=O)c1c(-c2ccccc2)c2cc(Cl)ccc2[nH]c1=O (configuration not stated)
6.25
Cc1ccc(NC(=O)c2c(-c3ccccc3)c3cc(Cl)ccc3n(Cc3cc(F)cc(F)c3)c2=O)c(C)c1
12.5

Next molecule, please.
Fill: MIC (Mycobacterium tuberculosis) for this molecule CC[C@@H](CO)NCCN[C@@H](CC)CO [ETHAMBUTOL] 1.56

* * *

system: Mycobacterium tuberculosis; assay: Antitubercular activity against Mycobacterium tuberculosis H37Rv after 1 week by microplate alamar blue assay; type: functional; conditions: 168 h
MIC by entry:

Reference set, count: 2
Cc1cccc(Cn2c(=O)c(C(=O)Nc3ccc(Br)cc3)c(-c3ccccc3)c3cc(Cl)ccc32)c1
> 25 µg/mL
O=C(Nc1ccc(F)cc1)c1c(-c2ccccc2)c2ccccc2n(Cc2ccccc2)c1=O
> 25 µg/mL

Next compound, please.
Tell me MIC reported for O=C(Nc1ccc(Cl)cc1)c1c(-c2ccccc2)c2cc(Cl)ccc2n(Cc2cccc(F)c2)c1=O 0.39 µg/mL

* * *

MIC by entry:
system: Mycobacterium tuberculosis; experiment: Antitubercular activity against Mycobacterium tuberculosis H37Rv after 1 week by microplate alamar blue assay; assay type: functional; settings: 168 h

Reference set, count: 8
O=C(Nc1ccc(N2CCOCC2)cc1)c1c(-c2ccccc2)c2cc(Cl)ccc2[nH]c1=O
6.25 µg/mL
O=C(NC12CC3CC(CC(C3)C1)C2)c1c(-c2ccccc2)c2ccccc2[nH]c1=O
3.12 µg/mL
O=C(NCCN1CCCCC1)c1c(-c2ccccc2)c2cc(Cl)ccc2[nH]c1=O
25 µg/mL
CS(=O)(=O)c1ccc(NC(=O)c2c(-c3ccccc3)c3ccccc3n(Cc3cccc(Cl)c3)c2=O)cc1
12.5 µg/mL
CSc1ccc(NC(=O)c2c(-c3ccccc3)c3ccccc3n(Cc3cccc(Cl)c3)c2=O)cc1
> 25 µg/mL
CO[C@H]1/C=C/O[C@@]2(C)Oc3c(C)c(O)c4c(O)c(c(/C=N/N5CCN(C)CC5)c(O)c4c3C2=O)NC(=O)/C(C)=C\C=C\[C@H](C)[C@H](O)[C@@H](C)[C@@H](O)[C@@H](C)[C@H](OC(C)=O)[C@@H]1C
0.2 µg/mL
O=C(NCCc1ccc(O)cc1)c1c(-c2ccccc2)c2cc(Cl)ccc2[nH]c1=O
25 µg/mL
O=C(Nc1ccc(CO)cc1)c1c(-c2ccccc2)c2cc(Cl)ccc2[nH]c1=O
> 25 µg/mL

Fill: MIC (Mycobacterium tuberculosis) for this compound O=C(Nc1ccc2c(c1)OCCO2)c1c(-c2ccccc2)c2ccccc2[nH]c1=O 25 µg/mL

Fill: MIC (Mycobacterium tuberculosis) for this compound O=C(NCCCn1ccnc1)c1c(-c2ccccc2)c2cc(Cl)ccc2[nH]c1=O 25 µg/mL

Fill: MIC (Mycobacterium tuberculosis) for this compound Cc1cccc(Cn2c(=O)c(C(=O)Nc3ccc(F)cc3)c(-c3ccccc3)c3cc(Cl)ccc32)c1 > 25 µg/mL

Fill: MIC (Mycobacterium tuberculosis) for this compound CSc1ccc(NC(=O)c2c(-c3ccccc3)c3cc(Cl)ccc3n(Cc3cccc(C)c3)c2=O)cc1 12.5 µg/mL

Fill: MIC (Mycobacterium tuberculosis) for this compound O=C(NCCc1c[nH]c2ccccc12)c1c(-c2ccccc2)c2ccccc2[nH]c1=O 12.5 µg/mL

Fill: MIC (Mycobacterium tuberculosis) for this compound Cc1cccc(Cn2c(=O)c(C(=O)Nc3ccc(OC(F)(F)F)cc3)c(-c3ccccc3)c3cc(Cl)ccc32)c1 > 25 µg/mL

Fill: MIC (Mycobacterium tuberculosis) for this compound O=C(Nc1ccc(Br)cc1)c1c(-c2ccccc2)c2ccccc2n(Cc2ccccc2)c1=O 6.25 µg/mL

Fill: MIC (Mycobacterium tuberculosis) for this compound Cc1cc(C)c(NC(=O)c2c(-c3ccccc3)c3cc(Cl)ccc3n(Cc3cccc(F)c3)c2=O)c(C)c1 0.78 µg/mL

Fill: MIC (Mycobacterium tuberculosis) for this compound O=C(NCCN1CCOCC1)c1c(-c2ccccc2)c2cc(Cl)ccc2[nH]c1=O 25 µg/mL

meta.source: ChEMBL document CHEMBL4270583
